molecular target: Prostaglandin G/H synthase 1 (Ovis aries); test: Inhibition of microsomal PGH synthase isolated from sheep seminal vesicles (SSV) estimated as rate of oxygen consumption in presence of 100 uM of the compound; parameters: scale not given: the % may be the effect or the level left
The reader will find reported Control values listed item by item below.
QUANTITY KIND: Control (%)

INSERT INTO measurements (smiles_record, data_value) VALUES
  ('CCCCC(C(=O)Nc1ccc(O)cc1)C(=O)Nc1ccc(O)cc1', 76),
  ('CCCCC(C(=O)Nc1ccc(Cl)cc1)C(=O)Nc1ccc(Cl)cc1', 96),
  ('O=C(CC(=O)Nc1ccccc1)Nc1ccccc1', 65),
  ('CCCCC(C(=O)Nc1ccc([N+](=O)[O-])cc1)C(=O)Nc1ccc([N+](=O)[O-])cc1', 126),
  ('O=C(CCCCC(=O)Nc1ccc(O)cc1)Nc1ccc(O)cc1', 67),
  ('CCCCC(C(=O)Nc1ccc(O)cc1C)C(=O)Nc1ccc(O)cc1C', 57);
